# targetSystem: Recombinant human MASP2 enzyme (fragment corresponding to amino acids 297-686, C-terminal His Tag) (human, UniProt O00187 297-686)
# Sequence (O00187 other isoform, or with tags, fused parts or gaps limits assumed): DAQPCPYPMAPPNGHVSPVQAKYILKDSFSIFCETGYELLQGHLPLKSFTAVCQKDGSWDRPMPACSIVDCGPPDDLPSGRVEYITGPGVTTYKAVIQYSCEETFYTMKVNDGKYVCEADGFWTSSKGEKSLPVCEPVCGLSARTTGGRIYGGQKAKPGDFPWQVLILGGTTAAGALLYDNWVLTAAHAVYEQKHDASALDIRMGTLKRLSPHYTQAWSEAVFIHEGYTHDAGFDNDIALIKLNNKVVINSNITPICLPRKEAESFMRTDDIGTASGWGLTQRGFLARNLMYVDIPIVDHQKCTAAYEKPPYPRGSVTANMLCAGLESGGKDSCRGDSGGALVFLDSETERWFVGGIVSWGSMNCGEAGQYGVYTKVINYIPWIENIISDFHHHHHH
# method: cell-based or functional assay
Numbered stars: 1 amine (or outer) side, 2 acyl side, 3 side chain; on linkers, the order of the positions; unused ones are H or OH. Bridge positions count the residues as written; N and C are the ends. Square brackets hold non-standard residues; d marks the D form. Ends that are not written are not given here. (3-Chloro-Ph)G = 3-chlorophenylglycine, O=C([C@@H](N[*:1])c1cccc(Cl)c1)[*:2]; Oic = O=C(O)[C@@H]1C[C@@H]2CCCC[C@@H]2N1; tBuAla = CC(C)(C)C[C@H](N)C(=O)O; NMeC = CN[C@@H](CS)C(=O)O
Measured human MASP2 IC50 by item
Report the value in nM with no unit label.

AICSRSLPP[(3-Chloro-Ph)G]CIPD-NH2 (disulfide 3-11; N-terminus assumed; SMILES CC[C@H](C)[C@H](NC(=O)[C@H](C)N)C(=O)N[C@H]1CSSC[C@@H](C(=O)N[C@H](C(=O)N2CCC[C@H]2C(=O)N[C@@H](CC(=O)O)C(N)=O)[C@@H](C)CC)NC(=O)[C@H](c2cccc(Cl)c2)NC(=O)[C@@H]2CCCN2C(=O)[C@@H]2CCCN2C(=O)[C@H](CC(C)C)NC(=O)[C@H](CO)NC(=O)[C@H](CCCNC(=N)N)NC(=O)[C@H](CO)NC1=O) [AIC+SRSLPP-((3-Chloro-Ph)G)-C+IPD-NH2] :: 1400

Would you kindly look at the next entry?
Q: Item under review: AICSRS[tBuAla]P[Oic]I[NMeC]IPD-OH (disulfide 3-11; N-terminus assumed; SMILES CC[C@H](C)[C@H](NC(=O)[C@H](C)N)C(=O)N[C@H]1CSSC[C@@H](C(=O)N[C@H](C(=O)N2CCC[C@H]2C(=O)N[C@@H](CC(=O)O)C(=O)O)[C@@H](C)CC)N(C)C(=O)[C@H]([C@@H](C)CC)NC(=O)[C@@H]2C[C@@H]3CCCC[C@@H]3N2C(=O)[C@@H]2CCCN2C(=O)[C@H](CC(C)(C)C)NC(=O)[C@H](CO)NC(=O)[C@H](CCCNC(=N)N)NC(=O)[C@H](CO)NC1=O) [AIC+SRS-((tBu)A)-P-(Oic)-I-((N-Me)C)+IPD-OH] . Reported human MASP2 IC50?
Result: 190
